Values from ChEMBL document CHEMBL1158217

Collected Activity values appear next to each entry.
# System: Spodoptera frugiperda
# Protocol text: Antifeedant activity against Spodoptera frugiperda final instar larvae at 100 ppm after 18 hrs by glass fiber disk method
# Type: functional
# Set-up: unit not given here
Lab note: jot down the number only; don't add units.

Record excerpt, results attached:
Compound	Measurement name	Test result
C=C1[C@@H]2CC[C@@]3(C)[C@H](c4ccoc4)OC(=O)C[C@]13O[C@H]1CC(=O)C(C)(C)[C@H](CC(=O)OC)[C@]12C [METHYLANGOLENSATE]	Activity	66.4
COC(=O)C[C@H]1C(C)(C)[C@H](OC(C)=O)[C@H]2C(=O)[C@]1(C)[C@H]1CC[C@]3(C)[C@@H](CC(=O)O[C@H]3c3ccoc3)[C@]13O[C@H]23	Activity	77.8
C/C=C(\C)C(=O)O[C@H]1C(C)(C)[C@H](CC(=O)OC)[C@]2(C)C(=O)[C@@]1(O)[C@H]1O[C@]13[C@@H]1CC(=O)O[C@@H](c4ccoc4)[C@]1(C)CC[C@H]23	Activity	86.3

Here is another compound to look at.
Inquiry: Using the record for COC(=O)C[C@H]1C(C)(C)[C@H](OC(=O)C(C)C)[C@H]2C(=O)[C@]1(C)[C@H]1CC[C@]3(C)[C@@H](CC(=O)O[C@H]3c3ccoc3)[C@]13O[C@H]23 , report its Activity.
Reply text: 72.6
